measurement.label: melting point (°C)

Quick check: melting point of Cc1ccc(-n2nc3c4cc(CCC(=O)O)ccc4[nH]c(=O)n3c2=O)cc1 ? 275

// query: Cc1ccc(-n2nc3c4cc(C#Cc5ccncc5)ccc4[nH]c(=O)n3c2=O)cc1 [Compound 13e] 330

Another compound to look at: Cc1ccc(-n2nc3c4cc(CCc5ccccc5)ccc4[nH]c(=O)n3c2=O)cc1 [Compound 14a] 303

Same for O=c1[nH]c2ccc(Br)cc2c2nn(-c3ccccc3)c(=O)n12 405

Also Cc1ccc(-n2nc3c4cc(C#Cc5ccc(Oc6ccccc6)cc5)ccc4[nH]c(=O)n3c2=O)cc1 [Compound 13f] ? 216

Thanks! And Cc1ccc(-n2nc3c4cc(Cc5cccc(F)c5)ccc4[nH]c(=O)n3c2=O)cc1 [Compound 16b] ? 324

Repeat with Cc1ccc(-n2nc3c4cc(Br)ccc4[nH]c(=O)n3c2=O)cc1 369

Follow-up item: Cc1ccc(-n2nc3c4cc(CCc5cccnc5)ccc4[nH]c(=O)n3c2=O)cc1 [Compound 14d] 292

---

Measured melting point accompanies every entry in the list below.

These recorded examples may help you get a feel for the data.
Fill blank: measured melting point of the molecule Cc1ccc(-n2nc3c4cc(CCc5cccc(O)c5)ccc4[nH]c(=O)n3c2=O)cc1 [Compound 14i] is ____. 300 °C (dec.)

Next molecule: Cc1ccc2[nH]c(=O)n3c(=O)n(-c4ccccc4)nc3c2c1 330 °C (dec.)

Next molecule: Cc1ccc(-n2nc3c4cc(C#Cc5ccsc5)ccc4[nH]c(=O)n3c2=O)cc1 [Compound 13b] > 320 °C (dec.)

More entries:
Would you kindly share the measured melting point for Cc1ccc(-n2nc3c4cc(C#Cc5ccc(-c6ccccc6)cc5)ccc4[nH]c(=O)n3c2=O)cc1 [Compound 13g] ? > 350 °C (dec.)

---

# melting point listing for each entry below

Field: example entries. Status: answers known.
// lookup melting point for Cc1ccc(-n2nc3c4cc(C#Cc5cccc(O)c5)ccc4[nH]c(=O)n3c2=O)cc1 [Compound 13i] 300 °C (dec.)

Same question, Cc1ccc(-n2nc3c4cc(CCc5ccccn5)ccc4[nH]c(=O)n3c2=O)cc1 [Compound 14c] this time > 300 °C (dec.)

Now consider the entry below.
Quick check: melting point of O=c1[nH]c2ccc(Br)cc2c2nn(-c3ccccc3F)c(=O)n12 ? 347 °C (dec.)
